Target: T1, Plasmodium falciparum Histidine Rich Protein-2 (Pf.HRP-2) (Plasmodium falciparum)
T1 construct: The construct used in the assays is not described; the whole entry is named
T1 chain: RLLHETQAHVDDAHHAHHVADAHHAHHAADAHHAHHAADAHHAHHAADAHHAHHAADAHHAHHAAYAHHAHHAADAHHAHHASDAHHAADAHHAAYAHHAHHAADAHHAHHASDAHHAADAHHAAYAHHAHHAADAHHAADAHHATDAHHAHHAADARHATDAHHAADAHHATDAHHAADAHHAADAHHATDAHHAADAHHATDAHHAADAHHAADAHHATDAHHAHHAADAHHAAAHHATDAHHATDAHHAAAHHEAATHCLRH
Experiment: plot 'Affinity': fraction bound against [Pf.HRP2] (molar); protocol not described
Ends that are not written are not given here.
Measured quantity: pEC50
Scale for pEC50: -log10 of concentration given in mol/L; no unit attached.

[Q] Name the recorded pEC50 for cy(YKYYR)(SEQ ID NO:29)-linker-cy(GWNVDL)(SEQ ID NO:30) biligand (designed binder, not fully specified (bridges), also called resultant biligand) peptide 1: YKYYR peptide 2: GWNVDL .
[A] 9.27

Data provenance is patent US20210025901A1.
